B1: TOR1AIP2 (parent)
chain: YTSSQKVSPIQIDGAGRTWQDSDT

variants of: B1; assay: protein stability index of a GFP-peptide fusion (GPS, HEK-293T) (PSI 1-6); higher = more stable; details: c terminus: a fixed tail appended;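 further: lentivirally expressed fusions sorted by FACS into six bins by GFP to DsRed ratio, PSI derived from sequencing read proportions per bin multiplied by bin number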
The following variants are listed with their measured protein stability index values.
MEASURED PROPERTY: protein stability index

VARIANT DESCRIPTOR: S22Q
ENDPOINT RESULT: 3.64
//
VARIANT DESCRIPTOR: D23K
ENDPOINT RESULT: 2.55
//
VARIANT DESCRIPTOR: T18A
ENDPOINT RESULT: 3.01
//
VARIANT DESCRIPTOR: Y1L
ENDPOINT RESULT: 4.06
//
VARIANT DESCRIPTOR: D13C
ENDPOINT RESULT: 2.79
//
VARIANT DESCRIPTOR: G14N
ENDPOINT RESULT: 3.5
//
VARIANT DESCRIPTOR: S3C
ENDPOINT RESULT: 3.55
//
VARIANT DESCRIPTOR: I10V
ENDPOINT RESULT: 4.1

These entries and their values trace back to the supplement of paper PMC10567573.
